Each entry below carries its reported IC50.
Tested on: PC-3
Experiment: Cytotoxicity against human PC3 cells after 72 hrs by sulforhodamine B assay
Assay type: functional, cell-based
Conditions: PC-3, 72 h
value_kind: IC50

compound: CC(C)[C@]12O[C@H]1[C@@H]1O[C@]13[C@]1(O[C@H]1C[C@H]1C4=C(CC[C@@]13C)C(=O)OC4)[C@]2(O)CNc1ccc2nn(CCN3CCCCC3)cc2c1
value_kind: IC50
observed_value: 0.0661 µM
--
compound: CC(C)[C@]12O[C@H]1[C@@H]1O[C@]13[C@]1(O[C@H]1C[C@H]1C4=C(CC[C@@]13C)C(=O)OC4)[C@H]2O [EPITRIPTOIIDE]
value_kind: IC50
observed_value: 1.32 µM
--
compound: CC(C)[C@]12O[C@H]1[C@@H]1O[C@]13[C@]1(O[C@H]1C[C@H]1C4=C(CC[C@@]13C)C(=O)OC4)[C@]2(O)CNc1ccc2cn[nH]c2c1
value_kind: IC50
observed_value: 0.188 µM
--
compound: CC(C)[C@]12O[C@H]1[C@@H]1O[C@]13[C@]1(O[C@H]1C[C@H]1C4=C(CC[C@@]13C)C(=O)OC4)[C@]2(O)CNc1ccc2c(cnn2CCN2CCOCC2)c1
value_kind: IC50
observed_value: 0.0366 µM
--
compound: CC(C)[C@]12O[C@H]1[C@@H]1O[C@]13[C@]1(O[C@H]1C[C@H]1C4=C(CC[C@@]13C)C(=O)OC4)[C@]2(O)CNc1ccc2c(cnn2C)c1
value_kind: IC50
observed_value: 0.132 µM
--
compound: COC(=O)n1ncc2cc(NC[C@@]3(O)[C@]45O[C@H]4C[C@H]4C6=C(CC[C@]4(C)[C@@]54O[C@H]4[C@@H]4O[C@@]43C(C)C)C(=O)OC6)ccc21
value_kind: IC50
observed_value: 0.188 µM
--
compound: CC(C)[C@]12O[C@H]1[C@@H]1O[C@]13[C@]1(O[C@H]1C[C@H]1C4=C(CC[C@@]13C)C(=O)OC4)[C@]2(O)CNc1ccc2c(c1)C(C)(C)C(=O)N2C
value_kind: IC50
observed_value: 0.0849 µM
--
compound: CC(C)[C@]12O[C@H]1[C@@H]1O[C@]13[C@]1(O[C@H]1C[C@H]1C4=C(CC[C@@]13C)C(=O)OC4)[C@]2(O)CNc1cccnc1
value_kind: IC50
observed_value: 2.81 µM
--
compound: COC(=O)c1cn(C[C@@]2(O)[C@]34O[C@H]3C[C@H]3C5=C(CC[C@]3(C)[C@@]43O[C@H]3[C@@H]3O[C@@]32C(C)C)C(=O)OC5)nn1
value_kind: IC50
observed_value: > 10 µM
--
compound: CC(C)[C@]12O[C@H]1[C@@H]1O[C@]13[C@]1(O[C@H]1C[C@H]1C4=C(CC[C@@]13C)C(=O)OC4)[C@]2(O)CNc1ccc2ncccc2c1
value_kind: IC50
observed_value: 0.452 µM
--
compound: CC(C)[C@]12O[C@H]1[C@@H]1O[C@]13[C@]1(O[C@H]1C[C@H]1C4=C(CC[C@@]13C)C(=O)OC4)[C@]2(O)CNc1cccc2[nH]ccc12
value_kind: IC50
observed_value: 0.0978 µM
--
compound: CC(C)[C@]12O[C@H]1[C@@H]1O[C@]13[C@]1(O[C@H]1C[C@H]1C4=C(CC[C@@]13C)C(=O)OC4)[C@]21CN(c2ccc3c(cnn3C)c2)CO1
value_kind: IC50
observed_value: 0.365 µM
--
compound: CC(C)[C@]12O[C@H]1[C@@H]1O[C@]13[C@]1(O[C@H]1C[C@H]1C4=C(CC[C@@]13C)C(=O)OC4)[C@]2(O)Cn1cc(C2CC2)nn1
value_kind: IC50
observed_value: > 10 µM
--
compound: CC(C)[C@]12O[C@H]1[C@@H]1O[C@]13[C@]1(O[C@H]1C[C@H]1C4=C(CC[C@@]13C)C(=O)OC4)[C@]2(O)CNc1ccc2ncncc2c1
value_kind: IC50
observed_value: 0.781 µM
--
compound: CC(C)[C@]12O[C@H]1[C@@H]1O[C@]13[C@]1(O[C@H]1C[C@H]1C4=C(CC[C@@]13C)C(=O)OC4)[C@]2(O)CNc1ccc2c(c1)CC(=O)N2
value_kind: IC50
observed_value: 0.0541 µM
--
compound: CC(C)[C@]12O[C@H]1[C@@H]1O[C@]13[C@]1(O[C@H]1C[C@H]1C4=C(CC[C@@]13C)C(=O)OC4)[C@]21CN(c2ccc3c(cnn3CCN3CCOCC3)c2)CO1
value_kind: IC50
observed_value: 0.253 µM
--
compound: CC(C)[C@]12O[C@H]1[C@@H]1O[C@]13[C@]1(O[C@H]1C[C@H]1C4=C(CC[C@@]13C)C(=O)OC4)[C@]2(O)CNc1ccc2nn(CCN3CCOCC3)cc2c1
value_kind: IC50
observed_value: 0.0408 µM
--
compound: CC(C)[C@]12O[C@H]1[C@@H]1O[C@]13[C@]1(O[C@H]1C[C@H]1C4=C(CC[C@@]13C)C(=O)OC4)[C@]2(O)CNc1ccc2[nH]ncc2c1
value_kind: IC50
observed_value: 0.0253 µM
--
compound: CC(C)[C@]12O[C@H]1[C@@H]1O[C@]13[C@]1(O[C@H]1C[C@H]1C4=C(CC[C@@]13C)C(=O)OC4)[C@]2(O)CNc1ccc2occc(=O)c2c1
value_kind: IC50
observed_value: 0.341 µM
--
compound: COC(=O)c1n[nH]c2ccc(NC[C@@]3(O)[C@]45O[C@H]4C[C@H]4C6=C(CC[C@]4(C)[C@@]54O[C@H]4[C@@H]4O[C@@]43C(C)C)C(=O)OC6)cc12
value_kind: IC50
observed_value: 0.264 µM
